target: purified human HDAC6 (Homo sapiens, UniProt Q9UBN7); construct: purchased BPS Bioscience 5006; experiment: HDAC6 Enzyme Assay; format: biochemical; conditions: HDAC6 inhibition at a compound concentration of 0.412 μM; read-out: Percent Inhibition at 0.412 μM
Sequence (Q9UBN7 whole entry): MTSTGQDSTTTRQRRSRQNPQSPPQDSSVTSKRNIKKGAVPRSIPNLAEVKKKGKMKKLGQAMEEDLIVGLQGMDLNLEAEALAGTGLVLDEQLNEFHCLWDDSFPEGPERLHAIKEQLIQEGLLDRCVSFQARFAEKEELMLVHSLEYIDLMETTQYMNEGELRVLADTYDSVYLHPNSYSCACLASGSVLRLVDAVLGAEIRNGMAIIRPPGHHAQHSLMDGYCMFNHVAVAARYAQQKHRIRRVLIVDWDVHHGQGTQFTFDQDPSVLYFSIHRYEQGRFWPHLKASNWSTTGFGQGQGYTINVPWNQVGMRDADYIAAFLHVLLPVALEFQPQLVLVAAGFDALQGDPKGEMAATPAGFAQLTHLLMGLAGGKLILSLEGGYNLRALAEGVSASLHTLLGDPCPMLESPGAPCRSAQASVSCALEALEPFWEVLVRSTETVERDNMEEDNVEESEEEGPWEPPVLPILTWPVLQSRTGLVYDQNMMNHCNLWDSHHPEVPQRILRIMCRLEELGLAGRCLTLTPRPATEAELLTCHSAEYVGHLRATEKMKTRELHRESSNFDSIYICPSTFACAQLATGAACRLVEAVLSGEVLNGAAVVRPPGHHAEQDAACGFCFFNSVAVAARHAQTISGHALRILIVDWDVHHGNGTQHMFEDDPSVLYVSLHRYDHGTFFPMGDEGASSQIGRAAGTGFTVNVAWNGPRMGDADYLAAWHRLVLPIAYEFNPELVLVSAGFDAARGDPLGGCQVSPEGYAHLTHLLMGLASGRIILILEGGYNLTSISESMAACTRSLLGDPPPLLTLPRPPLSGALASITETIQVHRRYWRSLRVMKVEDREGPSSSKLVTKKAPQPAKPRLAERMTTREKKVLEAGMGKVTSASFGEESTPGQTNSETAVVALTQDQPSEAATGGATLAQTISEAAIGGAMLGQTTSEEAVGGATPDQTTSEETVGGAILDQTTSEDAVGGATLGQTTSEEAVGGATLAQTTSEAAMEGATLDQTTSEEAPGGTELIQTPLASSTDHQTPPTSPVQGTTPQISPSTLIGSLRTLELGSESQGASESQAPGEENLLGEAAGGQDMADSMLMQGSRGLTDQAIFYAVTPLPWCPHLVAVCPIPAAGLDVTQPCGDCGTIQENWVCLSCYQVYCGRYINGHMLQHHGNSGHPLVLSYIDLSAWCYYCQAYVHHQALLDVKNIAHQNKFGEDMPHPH
outcome measure: inhibition at 0.412 µM (%)

compound="O=C(NO)C1CCc2ccc(-c3cc4ccccc4s3)cc2C1 (stereo not drawn)" value_unit=% numeric_readout=73
compound="O=C(NO)C1CCc2ccc(Oc3cccc(OCc4ccccc4)c3)cc2C1 (stereo not drawn)" value_unit=% numeric_readout=64
compound="O=C(NO)C1CCc2ccc(NC(=O)C3CC3)cc2C1 (stereo not drawn)" value_unit=% numeric_readout=72
